# tested on: T1, Recombinant human PDGF-BB (human, UniProt P01127 82-190)
# T1 construct: For SPR it was chemically biotinylated on primary amines and captured on neutravidin; also called PDGF-BB (human); Reliatech 200-055
# T1 sequence (P01127 82-190 limits assumed): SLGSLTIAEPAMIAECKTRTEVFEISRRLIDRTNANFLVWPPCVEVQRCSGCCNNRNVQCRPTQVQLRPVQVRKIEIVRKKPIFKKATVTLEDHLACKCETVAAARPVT
# assay summary: SPR (ProteOn), biotinylated PDGF-BB on neutravidin chip, DARPin injected; Kd from on- and off-rates
Here, each record is paired with measured Kd data.

| binder | Kd (nM) |
| --- | --- |
| DARPin #46 (designed binder) MRGSHHHHHHGSDLGKKLLEAARAGQDDEVRILMANGADVNAKDKSGHTPLHLAAYSGHLEIVEVLLKAGADVNAKDQEGTTPLHFAASVGHLEIVEVLLKAGADVNAQDHYGATPADLAALIGHEDIAEVLQKLN | 0.112 |
| DARPin #30 (designed binder) MRGSHHHHHHGSDLGKKLLEAARAGQDDEVRELLKAGADVNAKDEEGTTPLHYAAVYGHLEIVEVLLKAGADVNAQDIYGATPADLAALVGHEDIAEVLQKLN | 0.11 |
| DARPin #24 (designed binder) MRGSHHHHHHGSDLGKKLLEAARAGQDDEVRELLKAGADVNAKDEEGTTPLHYAAVWGHLEIVEVLLKAGADVNAQDIYGATPADLAALVGHEDIAEVLQKLN | 0.0301 |
| DARPin #25 (designed binder) MRGSHHHHHHGSDLGKKLLEAARAGQDDEVRILMANGADVNAKDEEGTTPLHYAAVWGHLEIVEVLLKAGADVNAQDIYGATPADLAALVGHEDIAEILQKLN | 0.0147 |
